This collection of values is drawn from ChEMBL document CHEMBL1833942.

Target: Progesterone receptor (Homo sapiens, UniProt P06401)
Sequence (P06401 whole entry): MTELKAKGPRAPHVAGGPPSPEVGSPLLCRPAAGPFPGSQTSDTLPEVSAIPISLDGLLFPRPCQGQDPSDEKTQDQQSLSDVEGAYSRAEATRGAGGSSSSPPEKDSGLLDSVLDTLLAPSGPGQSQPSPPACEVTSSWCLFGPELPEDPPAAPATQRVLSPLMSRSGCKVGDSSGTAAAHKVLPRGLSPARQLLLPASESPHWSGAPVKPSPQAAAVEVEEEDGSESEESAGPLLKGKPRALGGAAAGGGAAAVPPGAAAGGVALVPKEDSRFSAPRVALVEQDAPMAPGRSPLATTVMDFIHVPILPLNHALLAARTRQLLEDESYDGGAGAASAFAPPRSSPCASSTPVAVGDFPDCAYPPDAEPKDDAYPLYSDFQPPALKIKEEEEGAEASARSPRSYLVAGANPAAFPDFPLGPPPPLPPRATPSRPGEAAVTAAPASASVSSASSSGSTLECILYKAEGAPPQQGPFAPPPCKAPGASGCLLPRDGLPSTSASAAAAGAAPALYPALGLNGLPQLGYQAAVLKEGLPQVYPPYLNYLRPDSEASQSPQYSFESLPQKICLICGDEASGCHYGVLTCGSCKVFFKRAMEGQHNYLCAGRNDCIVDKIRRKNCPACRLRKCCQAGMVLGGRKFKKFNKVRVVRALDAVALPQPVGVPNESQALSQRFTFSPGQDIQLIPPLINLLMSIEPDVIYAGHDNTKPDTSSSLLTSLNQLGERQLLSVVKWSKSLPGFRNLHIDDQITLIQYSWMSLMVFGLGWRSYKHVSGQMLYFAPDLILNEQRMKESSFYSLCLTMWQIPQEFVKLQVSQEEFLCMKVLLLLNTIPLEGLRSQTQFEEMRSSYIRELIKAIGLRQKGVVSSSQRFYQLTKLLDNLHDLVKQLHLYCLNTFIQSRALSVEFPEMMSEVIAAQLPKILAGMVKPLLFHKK
Test: Antagonist activity at human progesterone receptor in T47D cells after 24 hrs by alkaline phosphatase assay
Assay type: functional, cell-based
pIC50: −log10 of the molar value.
// label = True if pIC50 is not less than 6, otherwise False

Can `CN(C)c1cc2oc(=O)ccc2cc1-c1ccc(C#N)cc1` be said to have pIC50 at or above 6?
True

Can `N#Cc1ccc(-c2ccc3oc(=O)ccc3c2)cc1` be said to have pIC50 at or above 6?
True

Can `CCN(CC)c1cc2oc(=O)ccc2cc1-c1ccc(C(C)=O)cc1` be said to have pIC50 at or above 6?
True

Can `CN(C)c1ccc(-c2cc3ccc(=O)oc3cc2O)cc1` be said to have pIC50 at or above 6?
False

Can `CCN(CC)c1cc2oc(=O)ccc2cc1-c1ccc(NC(C)=O)cc1` be said to have pIC50 at or above 6?
True

Can `CCN(CC)c1cc2oc(=O)ccc2cc1-c1ccc(F)cc1` be said to have pIC50 at or above 6?
True
